# Tested on: MCF7 breast
# assay procedure: NCI tumour cell line growth inhibition, 48 h; in the data active means GI50 below about 0.43 µM; inactive means the rest
Outcome field: choose from active, inactive

## Task Fill in: this test's call for CN(C)c1cc2c(Nc3ccc4c(cnn4Cc4ccccc4)c3)ncnc2cn1 is ___
## Result inactive

## Task Kindly provide the recorded test outcome for the following molecule: CC(C)c1[nH]nc2c(NCc3ccc(-c4ccccn4)cc3)nc(SCCN)nc12
## Result active

## Task Status in this test for CC(C)(C)C(=O)c1c(C(F)(F)F)n([O-])c2cc(Cl)c(Cl)cc2[n+]1=O ?
## Result active

## Task Kindly provide the recorded test outcome for the following molecule: CC1=NN(c2cccc(Cl)c2)C(=O)/C1=C\C=C\c1ccccc1
## Result inactive

## Task Dear colleague, could you share the recorded outcome for CC1=CC(C)(C)Nc2ccc(Cc3ccc4c(c3)C(C)=CC(C)(C)N4)cc21 when you have a moment?
## Result inactive

## Task Which outcome did this test record for the molecule O=C(CSC(c1ccccc1)c1ccccc1)N/N=C/c1ccccc1Cl ?
## Result inactive

## Task Per the assay record, what outcome was assigned to COCCNCc1ccc(-c2cc3nccc(Oc4ccc(NC(=O)C5(C(=O)Nc6ccc(F)cc6)CC5)cc4F)c3s2)nc1 ?
## Result inactive

## Task Which outcome did this test record for the molecule COc1cc2c3c(n([C@@H]4CCOC4)c(=O)c2cc1OC)-c1cc2c(cc1C3=O)OCO2 ?
## Result active

***
## Task Would you mind telling me which call this test gave CC(C)c1[nH]nc2c(NCc3ccc(-c4ccccn4)cc3)nc(SCCN(C)C)nc12 ?
## Result active

## Task # fetch the recorded call for COc1ccc(/C=C2\COc3ccc(O)c(O)c3C2=O)cc1OC here
## Result inactive

###

# Tested on: SF-268 CNS
# assay procedure: NCI tumour cell line growth inhibition, 48 h
This section presents compounds with their documented TGI values.
Number only, in µM; omit the unit.

Reference set, count: 5
## Task Which TGI is reported for this compound? Cc1ccc(N=Nc2c(O)ccc3n[nH]nc23)cc1
## Result 77.5

## Task So what does the record say about TGI for CC(C)(C)C(=O)c1c(C(F)(F)F)n([O-])c2cc(Cl)c(Cl)cc2[n+]1=O ?
## Result 0.902

## Task Given the entry Cc1nn(Cc2ccccc2)cc1C(=O)Nc1sc2c(c1C(N)=O)CCC(=O)C2 , report its measured TGI.
## Result 21.8

## Task Name the recorded TGI for Cc1cc2c3c([n+](C)c4ccc(F)cc4c3c1)-c1cc(F)ccc1N2C .
## Result 14.8

## Task Reported TGI for C1=Nc2ccc(cc2)-c2ccc(cc2)N=Cc2ccc(cc2)OCc2cccc(n2)COc2ccc1cc2 : what is it?
## Result 62.1

***
## Task Query (compound): Cc1ccc(Nc2nc(=O)c3c([nH]c4ccccc43)s2)cc1 ; field requested: TGI
## Result 35.6

## Task For the compound shown here, O=C1C(Cl)=C(Nc2cc(Cl)ccc2O)C(=O)N1Cc1ccccc1 , give the reported TGI.
## Result 35

## Task Which TGI value belongs to O=[N+]([O-])C(C(Cl)=C(Cl)Cl)=C(n1nnc2ccccc21)n1nnc2ccccc21 ?
## Result 70

## Task Field request: TGI | item: OC(CN1CCCC2CCCCC21)c1cc2ccccc2c2ccccc12 (configuration not stated)
## Result 13.7

## Task Return reported TGI; argument: Cc1ccnc2c(NC(C)CCCN)cc(O)c(O)c12 (configuration not stated)
## Result 74.2

## Task Reported TGI for CC1=NN(c2cccc(Cl)c2)C(=O)/C1=C\C=C\c1ccccc1 : what is it?
## Result 6.91

Attribution: PubChem BioAssay (NCI)
